Taken from the domain aggregation screens of Martell et al. (2025).

# soluble fraction (log2) values compiled below
assay: soluble fraction after stress (log2 fold change); higher = more stays soluble; pooled small domains, quantitative proteomics; details: stress: pH 4

Sequence	soluble fraction (log2)
HMLERPLKLKSHYVSTIYEKVAVQYSEGEEKKSVMGTLIEVNQDTIVLDDRGTIIEIPFKSITRAKTVF	-0.364
HMDSGINVWASAEGLTITADKDTTVYVYDIYGRTIHTSEVKAGTSDIAINTKGIVIVKANGYTKKII	-0.76
HMILVLKPGAPEDLKNELIHDIEKMGLRVHVSVGEGTTIIGLIGDTSKISKYTFSSYEIVSNVLRVT	-0.35

====

# soluble fraction (log2) values compiled below
experiment: soluble fraction after stress (log2 fold change); higher = more stays soluble; pooled small domains, quantitative proteomics; conditions: stress: pH 4

Sequence	soluble fraction (log2)
HMGRDWKTDLLNLATARGWGDVSYEVTGEGPDHARVYTAVAIVANQKTGTGVGPSKKEAERLAAEQAYRML	0.132
HMEWLENIKKLKKEKGLTNESLSEKSGISVGTLNKLLSGATTDPKLSTLRPLADALEVSLDELLAI	-0.187
HMSKDQKKFFIEIVSIRGFGSQIGISILNKLSIPQIINAIKTQNKKEISSIPGIGQKMTERLILELNNKFK	-0.691
HMPLNAHIVGRGKRDRRGKRGAPYSIVLELGRDENGKRIQKWYSGYPTKAAAEEDKIRMLRELQTGEYVPQ	0.153
HMDDFNLSPREKDVLGHLVKGNSYKMIADELQIGYDTVHSHIKKIYKKLHVNSMSEAVAKALKNKL	-0.26
HMNNFTQSALDTIDGIGKRRKKLLLNHFGSVKLIENASIEDIKKIDGISDLVANKIYNFFNKN	-0.173
HMSKLQKTKYAGVYFTEDTQTRVKTYVARIVLAGIIDTEVVVGHSNDQHRTNAAIAYQRRLELIQEAKN	-0.372
HMGTYYTEIIAQLKKEIANGTWKLGERLPGELALAKQFNVSRSSIREALKALAYAGIVESKPGRGTFLLHV	-0.207
HMSDPTDRLVLEAALKALGEEERQVVLLHAASGLKHREIARDLGLPLSTVLSRYSRALKKLQRYLTEEGVH	-0.461
HMVHSEDLQDHKYVSQLGEVFLKENPNYENIKKSWGDHMVVIKKFGRYPHRNKILNRKSTPEELEFLKG	-0.115
